A collection of molecules and their measured pIC50
Target: p110α/p85α (Homo sapiens (Human), UniProt P42336)
Sequence (P42336 whole entry): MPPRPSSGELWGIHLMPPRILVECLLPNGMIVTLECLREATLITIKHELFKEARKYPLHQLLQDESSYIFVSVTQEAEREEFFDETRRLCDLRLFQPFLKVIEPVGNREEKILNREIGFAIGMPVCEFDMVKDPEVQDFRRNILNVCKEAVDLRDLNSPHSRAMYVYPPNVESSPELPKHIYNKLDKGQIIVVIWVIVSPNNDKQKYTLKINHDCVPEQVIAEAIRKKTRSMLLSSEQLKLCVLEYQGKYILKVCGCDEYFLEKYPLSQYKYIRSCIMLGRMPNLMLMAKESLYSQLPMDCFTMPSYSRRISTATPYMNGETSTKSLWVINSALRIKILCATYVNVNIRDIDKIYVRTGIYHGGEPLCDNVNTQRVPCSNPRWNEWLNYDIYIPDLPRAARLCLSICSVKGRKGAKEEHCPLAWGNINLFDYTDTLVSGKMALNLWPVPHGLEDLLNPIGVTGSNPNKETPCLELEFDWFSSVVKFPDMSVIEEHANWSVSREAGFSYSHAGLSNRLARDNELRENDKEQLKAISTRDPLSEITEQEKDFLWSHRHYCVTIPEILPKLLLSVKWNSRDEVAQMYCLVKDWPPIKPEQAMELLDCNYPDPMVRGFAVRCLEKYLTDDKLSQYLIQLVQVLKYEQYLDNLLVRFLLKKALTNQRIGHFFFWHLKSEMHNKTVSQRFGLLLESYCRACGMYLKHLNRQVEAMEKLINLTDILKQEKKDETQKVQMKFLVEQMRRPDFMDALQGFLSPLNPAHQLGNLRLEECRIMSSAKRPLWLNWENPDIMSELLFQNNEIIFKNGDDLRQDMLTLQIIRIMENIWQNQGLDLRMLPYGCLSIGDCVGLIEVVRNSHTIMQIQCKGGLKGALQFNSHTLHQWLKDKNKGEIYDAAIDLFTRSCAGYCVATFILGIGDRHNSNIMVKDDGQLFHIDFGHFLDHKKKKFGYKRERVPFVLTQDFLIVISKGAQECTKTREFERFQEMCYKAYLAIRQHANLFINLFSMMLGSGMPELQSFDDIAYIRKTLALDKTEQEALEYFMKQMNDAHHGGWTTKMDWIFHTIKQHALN
Sequence (P27986 whole entry partner): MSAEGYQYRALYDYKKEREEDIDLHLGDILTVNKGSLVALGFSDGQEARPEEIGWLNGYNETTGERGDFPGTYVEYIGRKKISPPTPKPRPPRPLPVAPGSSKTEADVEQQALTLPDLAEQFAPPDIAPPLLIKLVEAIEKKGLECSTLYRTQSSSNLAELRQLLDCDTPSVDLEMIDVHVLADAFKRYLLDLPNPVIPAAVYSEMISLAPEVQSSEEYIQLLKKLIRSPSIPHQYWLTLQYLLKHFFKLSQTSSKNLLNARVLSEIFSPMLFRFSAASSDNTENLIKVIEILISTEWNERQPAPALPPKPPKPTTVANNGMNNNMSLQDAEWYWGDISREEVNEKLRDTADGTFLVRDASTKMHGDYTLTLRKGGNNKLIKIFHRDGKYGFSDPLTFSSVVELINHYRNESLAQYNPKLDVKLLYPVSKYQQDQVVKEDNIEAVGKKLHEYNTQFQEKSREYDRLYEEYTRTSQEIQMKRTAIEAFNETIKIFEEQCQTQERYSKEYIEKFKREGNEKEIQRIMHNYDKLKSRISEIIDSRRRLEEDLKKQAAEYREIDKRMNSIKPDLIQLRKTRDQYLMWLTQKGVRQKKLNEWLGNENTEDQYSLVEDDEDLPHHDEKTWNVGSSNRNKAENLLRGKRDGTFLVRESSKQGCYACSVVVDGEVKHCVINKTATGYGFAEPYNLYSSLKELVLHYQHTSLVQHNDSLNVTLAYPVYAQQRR
Assay: PI 3-Kinase (human) HTRF assay, p110α/p85α
Type: biochemical
Conditions: read-out: PI3K α In Vitro IC50
pIC50: −log10 of the molar value.

# example entries with known answers
# Smiles text, pIC50
data = [
    ("COc1ccc(-c2ccc3ncc(C(=O)N4CCOCC4)n3c2)cc1NS(=O)(=O)c1cccnc1", "> 7.00"),
    ("CS(=O)(=O)Nc1cc(-c2ccc3ncc(C(=O)N4CCOCC4)n3c2)cnc1Cl", "> 7.00"),
    ("Nc1nc2cc(-c3ccc4c(N)n[nH]c4c3)ccc2o1", "> 5.00"),
    ("C[C@@H]1CN(C2CN(C(=O)c3cnc4ccc(-c5ccc6oc(N)nc6c5)cn34)C2)CCN1", "> 7.00"),
    ("C[C@@H]1COCCN1C(=O)c1cnc2ccc(-c3ccc4oc(N)nc4c3)cn12", "> 7.00"),
    ("C[C@@H]1CCCN1C(=O)c1cnc2ccc(-c3ccc4oc(N)nc4c3)cn12", "> 7.00"),
    ("O=C(c1cnc2ccc(-c3ccc(Cl)c(NS(=O)(=O)c4ccccc4)c3)cn12)N1CCOCC1", "> 6.00"),
    ("COc1ncc(-c2ccc3ncn(C4CCN(C(C)C)CC4)c(=O)c3c2)cc1NS(=O)(=O)c1ccccc1", "> 7.00"),
]

Look up pIC50 for this molecule: CC1(C)COCCN1C(=O)c1cnc2ccc(-c3ccc4oc(N)nc4c3)cn12 > 6.00

// query: Nc1nc2cc(-c3ccc4nc(N)sc4c3)cc(F)c2o1 > 7.00
